experimental-target: IDH1R132C (Homo sapiens (Human), UniProt O75874, R132C)
Sequence (O75874 whole entry R132C): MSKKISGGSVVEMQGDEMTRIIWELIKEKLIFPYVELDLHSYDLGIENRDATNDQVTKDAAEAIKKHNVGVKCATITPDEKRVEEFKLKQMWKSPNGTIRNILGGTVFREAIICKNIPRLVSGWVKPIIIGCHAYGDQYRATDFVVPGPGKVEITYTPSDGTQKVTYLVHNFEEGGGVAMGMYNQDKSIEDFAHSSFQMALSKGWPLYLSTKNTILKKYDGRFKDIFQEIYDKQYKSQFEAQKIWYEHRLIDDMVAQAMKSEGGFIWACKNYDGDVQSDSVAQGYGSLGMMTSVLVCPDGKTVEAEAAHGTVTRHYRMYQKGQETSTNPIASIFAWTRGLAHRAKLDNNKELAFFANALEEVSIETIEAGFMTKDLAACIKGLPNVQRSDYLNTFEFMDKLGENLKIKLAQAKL
method-summary: Inhibitory activity against IDH1R132C enzyme (NADPH detection, WST-8)
cond: 10 nM, residual NADPH detected with WST-8, read-out: Test Example 1 IDH1 R132C IC50
quantity-kind: IC50 (nM)
Reply with just the number (in nM).

Example cases with answers are listed next.
> print(dat)
                                   molecule                       experimental.target  obs.value
1  C=CC(=O)N1CCN(c2onc(-c3c(F)cccc3Cl)c2C(=O)n2ccc3c(/C=C/C(=O)O)cccc32)C(C)(C)C1  IDH1R132C (Homo sapiens (Human), UniProt O75874, R132C)        256
2  C=CC(=O)N1CCC(c2onc(-c3c(Cl)cc(Cl)cc3Cl)c2C(=O)n2ncc3c(/C=C/C(=O)O)cccc32)CC1  IDH1R132C (Homo sapiens (Human), UniProt O75874, R132C)        625
3  Cc1cc(C)c(-c2noc(C(C)(C)F)c2C(=O)n2cc(C)c3c(/C=C/C(=O)O)cccc32)c(C)c1  IDH1R132C (Homo sapiens (Human), UniProt O75874, R132C)        116
4  C=CC(=O)N1CCC(c2onc(-c3c(Cl)cc(Cl)cc3Cl)c2C(=O)n2ccc3c(C4CC4C(=O)O)cccc32)CC1 (centres unmarked)  IDH1R132C (Homo sapiens (Human), UniProt O75874, R132C)        567

stdin: Quick one: give measured IC50 for CCN(CC)c1onc(-c2c(Cl)cccc2Cl)c1C(=O)n1ccc2c(/C=C/C(=O)O)cccc21
stdout: 143

stdin: Quick one: give measured IC50 for CC(C)(C)c1onc(-c2c(Cl)cc(Cl)cc2Cl)c1C(=O)n1ccc2c(/C=C/C(=O)O)ccc(F)c21
stdout: 193
